These measurements were taken from patent US8753570B2.

- assay-explanation: Fluorescence quantum yields and fluorescence lifetimes in water and methanol
- Format: physicochemical
- test-settings: fluorescence lifetime, column after φf in H2O; Table 2
assay-readout: τ (ns)

The examples below pair each entry with its known result.
molecule	assay-readout	unit-string	numeric-result
CCOC(=O)c1ccc(C#Cc2cc(OCCC[N+](C)(C)C)c(C#Cc3ccccc3)cc2OCCC[N+](C)(C)C)cc1.[Cl-].[Cl-] [N-OPE-1]	τ (ns)	ns	1.5
C[N+](C)(C)CCCOc1cc(C#Cc2ccccc2)c(OCCC[N+](C)(C)C)cc1C#Cc1ccccc1.[Cl-].[Cl-] [S-OPE-1 (H)]	τ (ns)	ns	1.6

(a) C[N+](C)(C)CCCOc1cc(C#Cc2ccc(C(=O)[O-])cc2)c(OCCC[N+](C)(C)C)cc1C#Cc1ccc(C(=O)[O-])cc1 [S-OPE-1 (COO—)]
(b) CCOC(=O)c1ccc(C#Cc2cc(OCCC[N+](C)(C)C)c(C#Cc3ccc(C(=O)OCC)cc3)cc2OCCC[N+](C)(C)C)cc1.[Cl-].[Cl-] [S-OPE-1 (COOEt)]
Query: Quick check, higher τ (ns) between a and b ? Return value: the label identifying the chosen record.
Response: a

====

- assay-explanation: Nanosecond transient absorption spectroscopy (triplet state lifetime)
- Type: physicochemical
- test-settings: aqueous solution
assay-readout: τTA (μs)

Worked cases, answers included:
chemical-structure	τTA (μs)
C[N+](C)(C)CCCOc1cc(C#Cc2ccccc2)c(OCCC[N+](C)(C)C)cc1C#Cc1ccccc1.[Cl-].[Cl-]	216
CCOC(=O)c1ccc(C#Cc2cc(OCCC[N+](C)(C)C)c(C#Cc3ccccc3)cc2OCCC[N+](C)(C)C)cc1.[Cl-].[Cl-]	107

(1) CCOC(=O)c1ccc(C#Cc2cc(OCCC[N+](C)(C)C)c(C#Cc3ccc(C(=O)OCC)cc3)cc2OCCC[N+](C)(C)C)cc1.[Cl-].[Cl-]
(2) C[N+](C)(C)CCCOc1cc(C#Cc2ccc(C(=O)[O-])cc2)c(OCCC[N+](C)(C)C)cc1C#Cc1ccc(C(=O)[O-])cc1
Query: Lab log: flag the item ( 1 or 2 ) with the smaller τTA (μs) figure. # respond with the chosen item's label
Response: 1
(1: 77 μs, 2: 136 μs)

====

- assay-explanation: Fluorescence quantum yields and fluorescence lifetimes in water and methanol
- Type: physicochemical
- test-settings: H2O; Table 2
assay-readout: φf in H2O

chemical-structure	assay-readout	numeric-result
CCOC(=O)c1ccc(C#Cc2cc(OCCC[N+](C)(C)C)c(C#Cc3ccc(C(=O)OCC)cc3)cc2OCCC[N+](C)(C)C)cc1.[Cl-].[Cl-]	φf in H2O	0.023
C[N+](C)(C)CCCOc1cc(C#Cc2ccccc2)c(OCCC[N+](C)(C)C)cc1C#Cc1ccccc1.[Cl-].[Cl-]	φf in H2O	0.80

(a) C[N+](C)(C)CCCOc1cc(C#Cc2ccc(C(=O)[O-])cc2)c(OCCC[N+](C)(C)C)cc1C#Cc1ccc(C(=O)[O-])cc1
(b) CCOC(=O)c1ccc(C#Cc2cc(OCCC[N+](C)(C)C)c(C#Cc3ccccc3)cc2OCCC[N+](C)(C)C)cc1.[Cl-].[Cl-]
Query: Recorded φf in H2O values differ for a and b ; which one is higher? Write down the label attached to your selection.
Response: a
